Molecular target: T1, Pep6 (human)
T1 construct: also called Peptide 6; Peptide-6
T1 peptide: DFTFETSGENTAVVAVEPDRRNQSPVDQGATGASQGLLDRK
Assay: ELISA, coated peptide; note: test concentration or dose not given here
quantity-name: ELISA O.D. (O.D.)
Give a bare numeral; the unit O.D. is implied.

antibody 617 (antibody, V domains shown, Mouse hybridoma-derived anti-CD138 antibody) VH: QVQLQLPGAELVKPGASVKVSCKASAYTFTSYWMHWVKQRPGQGLEWIGRIHPSDSDTNYNQNFKGKATLTVDKSSNTAYMQLSSLTSEDSAVYYCATGFSFWGQGTLVTVSA VL: DIVMTQSHKFMSTSVGDRVSITCKASQDVSTTVAWYQQKPGQSPKLLIYSASYRYTGVPDRFTGSGSGTDFTFTISSVQAEDLAVYYCQQHYSTRPTFGGGTKLEIK	0.809
antibody 623 (antibody, V domains shown, Mouse hybridoma-derived anti-CD138 antibody) VH: QIQLVQSGPELKKPGETVKISCKASGYTFTTYGMSWVKQAPGKGLKWMGWINTYSGVPTYADDFKGRFAFSLETSASTAYLQINNLKNEDTATFFCAREGSTMVTRYYFDYWGQGTTLTVSS VL: DIVMTQAAPSVPVTPGESVSISCRSSKSLLHSNGNTYLYWFLQRPGQSPQLLIYRMSNLASGVPDRFSGSGSGTAFTLRISRVEAEDVGVYYCMQHLEYPSTFGGGTKLEIK	1.67
antibody 616 (antibody, V domains shown, Mouse hybridoma-derived anti-CD138 antibody) VH: QIHLVQSGPELKKPGETVRISCKASGYTFTTYGMSWVKQAPGKALKWMGWINTYSGVPTYADDFKGRFAFSLETSASTAYLQINNLKNEDTATYFCTREGSTMVTRYYFDYWGQGTTLTVSS VL: DIVMTQAAPSVPVTPGESVSISCRSSKSLLHSNGNTYLYWFLQRPGQSPQLLIYRMSNLASGVPDRFSGSGSGTAFTLRISRVEAEDVGVYHCMQHLESPYTFGGGTTLEIK	1.62

Now for the binder whose ELISA O.D. we want.
Exam item: Give me measured ELISA O.D., please, for this binder: antibody 619 (antibody, V domains shown, Mouse hybridoma-derived anti-CD138 antibody) VH: QIQLVQSGPELKKPGETVKISCKASGYTFTTYGMSWVKQAPGKGLKWMGWINTYSGVPTYADDFKGRFAFSLETSASTAYLQINNLKNEDTATYFCAREGSTMVTRYYFDYWGQGTTLTVSS VL: DIVMTQAAPSVPVTPGESVSISCRSSKSLLHSNGNTYLYWFLQRPGQSPQVLIYRMSNLASGVPDRFSGSGSGTAFTLRISRVEAEDVGVYYCMQHLESPYTFGGGTKLEIK
Marked response: 1.37

Provenance of the data: patent US20190100588A1
